Where do the numbers come from? From patent US10947213B1.

Target: TLR7/NFKb HEK cells (Homo sapiens)
Sequence (Q9NYK1 27-1049): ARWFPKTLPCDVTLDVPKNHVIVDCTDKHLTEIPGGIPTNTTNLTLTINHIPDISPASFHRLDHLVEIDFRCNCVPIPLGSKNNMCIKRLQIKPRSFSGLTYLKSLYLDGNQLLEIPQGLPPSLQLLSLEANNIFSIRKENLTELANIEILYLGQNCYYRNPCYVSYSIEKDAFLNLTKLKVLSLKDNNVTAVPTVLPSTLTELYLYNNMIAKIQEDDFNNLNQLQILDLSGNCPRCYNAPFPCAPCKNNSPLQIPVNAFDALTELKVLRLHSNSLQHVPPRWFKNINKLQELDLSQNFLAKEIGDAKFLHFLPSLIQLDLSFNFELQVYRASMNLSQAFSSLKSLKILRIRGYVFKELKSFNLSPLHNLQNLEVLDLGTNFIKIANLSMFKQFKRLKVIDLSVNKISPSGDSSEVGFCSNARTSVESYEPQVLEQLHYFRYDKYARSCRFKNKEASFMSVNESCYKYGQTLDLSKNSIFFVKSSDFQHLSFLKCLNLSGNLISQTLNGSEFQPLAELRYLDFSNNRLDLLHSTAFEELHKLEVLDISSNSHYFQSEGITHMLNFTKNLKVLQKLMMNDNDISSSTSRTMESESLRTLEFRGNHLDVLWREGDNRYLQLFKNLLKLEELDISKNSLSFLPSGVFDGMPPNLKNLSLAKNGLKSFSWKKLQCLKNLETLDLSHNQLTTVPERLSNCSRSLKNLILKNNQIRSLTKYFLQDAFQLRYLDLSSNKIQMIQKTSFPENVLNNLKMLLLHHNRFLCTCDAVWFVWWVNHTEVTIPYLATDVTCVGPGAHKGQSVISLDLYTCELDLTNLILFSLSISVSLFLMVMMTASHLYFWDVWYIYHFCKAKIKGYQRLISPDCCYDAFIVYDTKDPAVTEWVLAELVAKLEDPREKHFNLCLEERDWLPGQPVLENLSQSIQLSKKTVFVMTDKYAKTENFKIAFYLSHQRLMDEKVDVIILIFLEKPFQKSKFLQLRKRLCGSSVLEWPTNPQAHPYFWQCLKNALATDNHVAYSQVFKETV
Experiment: HEK Cell Assay (TLR7/NFKb reporter, Steady-Glo luciferase readout)
Settings: 30 min compound preincubation, then R*48 agonist for 5 hours, read-out: Potency
Protocol: Example 142: HEK Cell Assay Into 384 CulturePlates (Corning 3707) was placed 5000 c/w of TLR7/NFKb HEK cells in 30 uL DMEM without Phenil red (gibco #31053) and 10% i.a. FCS and 2 mM L-ZGLutamin. The cells were incubated for 24 h at 37° C., 10% carbon dioxide and 90% relative humidity. […] The assay plate was allowed to sit for 30 min at room temperature and then the plate was read on EnVision.
IC50: recorded values

The cases that follow already have their IC50 on record.
C[C@H]1C[C@@H](N)CN(c2ccc(Cl)c3ncccc23)C1 | < 1000 nM
N#Cc1ccc(N2CC(NC3CCC(O)CC3)CC(C(F)(F)F)C2)c2nccnc12 (single isomer, unassigned) [Compound 91] | < 1000 nM
CCN(CC)CC(=O)NCC1CCN(c2ccc(C#N)c3ncccc23)CC1 | < 1000 nM
C[C@H]1C[C@@H](NC(=O)C2CC(F)(F)C2)CN(c2ccc(C(F)F)c3nccnc23)C1 | 1000 to 10000 nM
C[C@H]1C[C@@H](NCC(N)=O)CN(c2ccnc3nccnc23)C1 | > 10000 nM
C[C@H]1C[C@@H](NC(=O)CN2CCC(F)(F)CC2)CN(c2ccc(C(F)(F)F)c3ncccc23)C1 | < 1000 nM

Request the reported IC50 associated with `C[C@H]1C[C@@H](NC(=O)CO)CN(c2ccnc3nccnc23)C1`
> 10000 nM

Follow-up entry: `C[C@H]1C[C@@H](N)CN(c2ccnc3ccccc23)C1`
1000 to 10000 nM
